assay: Solubility of the compound in water; format: physicochemical
valueType: solubility (µg/mL)
Quick reminder: number only, in µg/mL, skip the unit.

Ask: // query solubility value for entry CNc1ccc(NC(=S)NC(=O)c2ccc(C(C)(C)C)cc2)c(Cl)c1.Cl
Result: 0.2

====

system: La Crosse virus; assay: Antiviral activity against La Crosse virus infected in african green monkey Vero cells assessed as inhibition of virus-induced cytopathic effect by fluorometric analysis; assay type: functional, organism-based
pEC50: −log10 of the molar value.
Classification field: True = pEC50 at or over 6; False = pEC50 under 6.

Ask: Hi, just wondering whether COc1cc(NC(=S)NC(=O)c2ccc(C(C)(C)C)cc2)ccc1NC(=O)c1cccc(N)c1 shows pEC50 of 6 or higher.
Result: False

Ask: Hi, just wondering whether CC(C)(C)c1ccc(C(=O)NC(=S)Nc2ccc(S(=O)(=O)Nc3nccs3)cc2)cc1 shows pEC50 of 6 or higher.
Result: False

Ask: Hi, just wondering whether CCS/C(=N\C(=O)c1ccc(C(C)(C)C)cc1)Nc1ccc(NC(=O)c2ccccc2Cl)c(OC)c1 shows pEC50 of 6 or higher.
Result: True

Ask: Hi, just wondering whether COc1cc(NC(=S)NC(=O)c2ccc(C(C)(C)C)cc2)ccc1NCc1ccccc1Cl shows pEC50 of 6 or higher.
Result: True

Ask: Hi, just wondering whether CC(C)(C)c1ccc(C(=O)NC(=S)Nc2ccc(NC(=O)c3ccccc3)cc2Cl)cc1 shows pEC50 of 6 or higher.
Result: True

Ask: Hi, just wondering whether COc1ccc(NC(=S)NC(=O)c2ccc(C(C)(C)C)cc2)cc1NC(=O)c1ccccc1Cl shows pEC50 of 6 or higher.
Result: False

Ask: Hi, just wondering whether COc1cccc(NC(=S)NC(=O)c2ccc(C(C)(C)C)cc2)c1 shows pEC50 of 6 or higher.
Result: False

Ask: Hi, just wondering whether CC(C)(C)c1ccc(C(=O)NC(=S)Nc2cccc(Cl)c2)cc1 shows pEC50 of 6 or higher.
Result: False
